- Assay method text: Antiamnesic activity in the mouse (step-down passive avoidance, amnesia induced by ECS)
- Assay type: in vivo, mouse (CD1 male)
- Cond: OS, mouse

Chem smiles: N[C@@H](CCC(=O)O)C(=O)NCCC12CC3CC(CC(C3)C1)C2
Antiamnesic activity (in words): particularly remarkable

Chem smiles: CN1CCN(C(=O)[C@@H](N)CCC(=O)O)CC1
Antiamnesic activity (in words): particularly remarkable

====

- Assay method text: Memory-enhancement activity in the passive avoidance test in the rat
- Type: in vivo, rat (male Wistar)
- Cond: 96 h; 10 mg/kg IP, rat, retest on the 4th day, 6 treatments; read-out: % variation vs controls (FS) in step through latency
Reported change in vivo at 10 mg/kg by item:
// return numeric value only (unit: %, not printed)

Molecule: N[C@@H](CCC(=O)O)C(=O)NC1CCCCCC1 [Compound 20]
change in vivo at 10 mg/kg, %: 36

Molecule: CC1(C)CCC(NC(=O)CC[C@H](N)C(=O)O)CC1 [Compound 48, 1-(4,4-dimethylcyclohexyl)-L-glutamine]
change in vivo at 10 mg/kg, %: 18

Molecule: N[C@@H](CCC(=O)NCCC12CC3CC(CC(C3)C1)C2)C(=O)O [Compound 45]
change in vivo at 10 mg/kg, %: 12

Molecule: CC1(C)CCC(NC(=O)[C@@H](N)CCC(=O)O)CC1 [Compound 23]
change in vivo at 10 mg/kg, %: 43

Molecule: N[C@@H](CCC(=O)O)C(=O)NCCC12CC3CC(CC(C3)C1)C2 [Compound 16]
change in vivo at 10 mg/kg, %: 57

Molecule: N[C@@H](CC(=O)O)C(=O)NCCC12CC3CC(CC(C3)C1)C2 [Compound 43]
change in vivo at 10 mg/kg, %: 29

INPUT: Quick one: change in vivo at 10 mg/kg of N[C@H](CCC(=O)O)C(=O)NCCC12CC3CC(CC(C3)C1)C2 [Compound 17] ?
OUTPUT: 0

INPUT: Quick one: change in vivo at 10 mg/kg of N[C@@H](CCC(=O)O)C(=O)N1CCC2(CCCCC2)CC1 [Compound 32] ?
OUTPUT: 15

INPUT: Quick one: change in vivo at 10 mg/kg of CC1(C)CCC(NC(=O)[C@H](N)CCC(=O)O)CC1 [Compound 24] ?
OUTPUT: 0
